These data points were gathered from ChEMBL document CHEMBL3992534.

Measured Ki on Cannabinoid receptor 2 (Mus musculus, UniProt P47936) follows.
Sequence (P47936 whole entry): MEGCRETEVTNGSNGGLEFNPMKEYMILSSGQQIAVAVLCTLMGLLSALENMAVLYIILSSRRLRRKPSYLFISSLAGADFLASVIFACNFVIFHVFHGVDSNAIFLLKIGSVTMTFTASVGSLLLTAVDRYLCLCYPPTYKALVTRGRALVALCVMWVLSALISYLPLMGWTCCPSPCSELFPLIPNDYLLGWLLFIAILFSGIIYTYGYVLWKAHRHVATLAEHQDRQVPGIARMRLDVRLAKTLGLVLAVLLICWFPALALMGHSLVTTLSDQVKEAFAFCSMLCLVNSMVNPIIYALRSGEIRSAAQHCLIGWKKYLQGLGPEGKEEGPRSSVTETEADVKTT

The cases that follow already have their Ki on record.
INSERT INTO assay_data (compound, assayedsystem, measurement) VALUES
  ('COc1cccc(/C(N)=N\C(=N/S(=O)(=O)c2ccc(Cl)cc2)N2CC(c3ccccc3)C(c3ccc(Cl)cc3)=N2)c1 (stereo unspecified)', 'Cannabinoid receptor 2 (Mus musculus, UniProt P47936)', '0.161 µM'),
  ('N/C(=N/C(=N\S(=O)(=O)c1ccc(Cl)cc1)N1CC(c2ccccc2)C(c2ccc(Cl)cc2)=N1)c1ccccc1F (stereo unspecified)', 'Cannabinoid receptor 2 (Mus musculus, UniProt P47936)', '0.107 µM'),
  ('C/C(N)=N\C(=N/S(=O)(=O)c1ccc(F)cc1)N1CC(c2ccccc2)C(c2ccc(Cl)cc2)=N1 (stereo unspecified)', 'Cannabinoid receptor 2 (Mus musculus, UniProt P47936)', '> 1 µM');

Checklist item: Ki tested on Cannabinoid receptor 2 (Mus musculus, UniProt P47936), entry C/C(N)=N\C(=N/S(=O)(=O)c1ccc(C(C)(C)C)cc1)N1CC(c2ccccc2)C(c2ccc(Cl)cc2)=N1 (stereo unspecified) , value?
> 1 µM

Checklist item: Ki tested on Cannabinoid receptor 2 (Mus musculus, UniProt P47936), entry CC(C)S/C(N)=N\C(=N/S(=O)(=O)c1ccc(Cl)cc1)N1CC(c2ccccc2)C(c2ccc(Cl)cc2)=N1 (stereo unspecified) , value?
> 1 µM

Checklist item: Ki tested on Cannabinoid receptor 2 (Mus musculus, UniProt P47936), entry COc1ccc(S(=O)(=O)/N=C(\N=C(/C)N)N2CC(c3ccccc3)C(c3ccc(Cl)cc3)=N2)cc1 (stereo unspecified) , value?
> 1 µM
